B1: glmS ribozyme (parent)
chain: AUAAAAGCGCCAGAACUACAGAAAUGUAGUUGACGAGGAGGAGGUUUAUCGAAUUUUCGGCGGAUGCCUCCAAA

variants of: B1; test: self-cleavage kobs at 2500 uM GlcN6P; higher = faster cleavage; RNA array; settings: with glucosamine-6-phosphate
Fewer inactive variants are shown than the library holds.
quantityName: self-cleavage kobs at 2500 uM GlcN6P (s⁻¹)
The answer is to be given in s⁻¹; state only the numeric part.

Field request: self-cleavage kobs at 2500 uM GlcN6P | item: G32A A39C
0.000114

Field request: self-cleavage kobs at 2500 uM GlcN6P | item: U31C A39U U54C C71U
0.000671

Field request: self-cleavage kobs at 2500 uM GlcN6P | item: C11U U31G
0.00175

Field request: self-cleavage kobs at 2500 uM GlcN6P | item: U54G U57A
0.000118

Field request: self-cleavage kobs at 2500 uM GlcN6P | item: A53U C71G
0.000247

Field request: self-cleavage kobs at 2500 uM GlcN6P | item: U31C U47A U56C
0.000487

Field request: self-cleavage kobs at 2500 uM GlcN6P | item: A6U A14G U69G
0.000146

Field request: self-cleavage kobs at 2500 uM GlcN6P | item: A42G A53U
0.0159

Field request: self-cleavage kobs at 2500 uM GlcN6P | item: U31G A53G
0.00382

Field request: self-cleavage kobs at 2500 uM GlcN6P | item: A53U U55C U65A
0.000947

Field request: self-cleavage kobs at 2500 uM GlcN6P | item: A14C U56G C68A
8.68e-05

Field request: self-cleavage kobs at 2500 uM GlcN6P | item: A42U U56A U69G
0.00299

Field request: self-cleavage kobs at 2500 uM GlcN6P | item: A6C A14U C50G C61G C68G C70U
0.000499
